System: HCC-2998 colon
Test: NCI tumour cell line growth inhibition, 48 h
Assign TGI to each entry below.

Some molecules with recorded TGI:
Can you look up the measured TGI of Oc1[nH]c2cc(Cl)ccc2c1/C=c1/ccc2c(c1)N=C(c1cc(F)cc(F)c1)N=2 for me?
17.2 µM

Which measured TGI value corresponds to COc1cccc(NC(=O)C(=O)C(C(C)=O)c2nc3ccc(Cl)cc3[nH]c2=O)c1 (stereo unspecified) ?
> 100 µM

// lookup TGI for COc1cc([N+](=O)[O-])c2ncccc2c1[N+](=O)[O-]
17.8 µM

Which TGI reading was recorded for the molecule NCCC1CN(C(=O)OCc2ccccc2)c2ccccc21 (stereo unspecified) ?
33.9 µM

Look up TGI for this molecule: Cn1c2ccccc2n2c3ncccc3c(=S)c(C#N)c12
> 100 µM

TGI lookup needed for O=c1[nH]c2ccccc2n1-c1n[nH]c2ccccc12 , thanks.
> 100 µM

Provide the reported TGI of each entry below, same order.
1. CC(=O)N(Cc1ccccc1)c1ccccc1I(=O)=O
2. O=C(Nc1cccc(-n2cc(-c3ccncc3)c(-c3ccc(O)c(Cl)c3)n2)c1)c1cccc(C(F)(F)F)c1
3. CCOC(=O)C(=O)C(=O)NN(C)C1=NCCN1
4. Cc1ccc(-c2n[nH]c(=O)n2/N=C\c2ccccc2)cc1

1. > 100 µM
2. > 100 µM
3. > 100 µM
4. > 100 µM

Which TGI is reported for this molecule? O=C1CC(n2cccc2)c2c(Br)sc(Br)c21 (stereo unspecified)
28.7 µM

====

System: IGROV1 ovarian
Would you mind answering with one of these outcomes? active, inactive

Please state the recorded outcome for this compound: CCC(CC(C)C)Nc1ccc(NC(CC)CC(C)C)cc1 (stereo not drawn)
inactive

Consider the additional compound presented here.
So what was the verdict on CC/C=C\C/C=C\C[C@H](O)C/C=C1/C(=O)C=C[C@@H]1C/C=C\CCCC(=O)OC in this test?
inactive

====

Test system: 786-0 renal
Experiment: NCI tumour cell line growth inhibition, 48 h
Could you please report measured TGI for the items listed next?

Which TGI is reported with 786-0 renal for this entry: Nc1ccc(S(=O)(=O)Nc2cnc3c(Cl)cccc3n2)cc1 ?
> 750 µM

Field: TGI (786-0 renal). Entry: c1ccc(-c2nnn(CCN3CCCCC3)n2)cc1
> 100 µM

# get_value(readout= TGI, system= 786-0 renal) for CC1(C)OC2C(COS(N)(=O)=O)SC(n3cnc4cncnc43)C2O1 (stereo not drawn)
> 100 µM

Query TGI on 786-0 renal for Cc1nc(-n2nc(-c3ccccc3)cc2-c2ccccc2)sc1C(/C=C/c1ccc([N+](=O)[O-])cc1)=N/NC(=O)c1ccncc1
37 µM

Query the reported TGI for 786-0 renal; item: O=c1cc(NCc2ccncc2)[nH]c(=O)[nH]1
> 100 µM

// input: 4 compounds below; output: TGI for each
1. Cc1cc(C(O)CN(C)C)cc2c1ccc1cc(C(C)C)ccc12 (stereo not drawn)
2. CC(C)C1(O)C(=O)N(c2c(F)c(F)c(F)c(F)c2F)C(=S)N1CCSc1ccccc1 (stereo not drawn)
3. C[C@]12CC[C@H](OC3CCCCO3)CC1=CC[C@@H]1C2CC[C@]2(C)/C(=N/O)CCC12 (stereo partly drawn)
4. CCOC(=O)C(NC(=O)c1[nH]cnc1/N=N/N(C)C)C(C)C (stereo not drawn)

["3.4 µM", "33.3 µM", "55.8 µM", "> 100 µM"]

Parameter requested: TGI. Apply to each item below.
1. N#Cc1nc(C#N)n(C(=O)c2ccccc2)c1NC(=O)c1ccccc1
2. CSC1=NCC2(S1)c1ccccc1N(C(=O)OC(C)(C)C)C2N1CCCCC1 (stereo not drawn)
3. Oc1ccc(Cl)cc1Cc1cc(Cl)ccc1O
4. O=C1CN(/N=C/c2ccc(-c3ccc(F)cc3)o2)C(=O)N1
5. O=C(/C=C/c1cccs1)c1ccccc1Cl

1. > 100 µM
2. > 100 µM
3. 14.3 µM
4. > 100 µM
5. 27.8 µM

Can you give me TGI for all of these, one by one?
1. CC(=O)/C(=C\c1ccc(Cl)c(Cl)c1)C(=O)C(C)CN(C)C (stereo not drawn)
2. NC(=O)Cc1nc2c(=O)[nH]cnc2n1C1OC(CO)C(O)C1O (stereo not drawn)
3. CCN(CC)c1ccc2cc(-c3nc4ccccc4c(=O)[nH]3)c(=N)oc2c1
4. CC1(C2CCC3(C)OC3C2)CO1 (stereo not drawn)
5. NC1=NCC(CN2CCCC2)O1 (stereo not drawn)
6. S=c1nc(-c2ccnc(-c3nc(=S)[nH][nH]3)c2)[nH][nH]1
7. O=C1c2ccccc2-c2[nH]c3cn[nH]c(=O)c3c21

["8.96 µM", "> 100 µM", "> 100 µM", "> 100 µM", "> 100 µM", "> 100 µM", "> 100 µM"]

State recorded TGI for all listed compounds.
1. CO[C@@]12[C@@H]3NC3CN1C1=C(C(=O)C(N)=C(C)C1=O)[C@@H]2COC(N)=O (stereo partly drawn)
2. O=[N+]([O-])c1cccnc1-n1cnc2ccccc21

1: 2.77 µM; 2: > 100 µM

====

Assign TGI to each entry below.
System: SK-MEL-2 melanoma
Test: NCI tumour cell line growth inhibition, 48 h
Give bare numbers, in µM.

Suppose we examine the compound CN(C=O)/C=C/c1cc(O)ccc1O ; what TGI value has been reported?
59.5

Entry under review: CO[C@H]1C[C@H](O[C@H]2CC[C@]3(C=O)[C@H]4CC[C@]5(C)[C@@H](C6=CC(=O)OC6)CC[C@]5(O)[C@@H]4CC[C@]3(O)C2)O[C@H](C)[C@H]1O . Reported TGI?
2.04

State the recorded TGI for this entry: COc1ccc(-c2cc(C(O)C3CCCCN3)c3ccccc3n2)cc1 (stereo not drawn)
18.5

Attention now turns to another entry.
I am curious: what TGI value has been reported for CCOc1cc(-c2ccc[nH]2)[nH]c1/C=C1\N=C(C)C(C(=O)OC)=C1C ?
0.0893

====

Consider the following molecules; for each one, report its TGI.
Test system: UO-31 renal
Assay: NCI tumour cell line growth inhibition, 48 h

Examples with answers:
Name the recorded TGI for CC(=O)Oc1ccc(/C=N/NC(N)=S)nc1 .
14.1 µM

Quick check: TGI of COC(=O)[C@@H]1CN(C(=O)c2ccccc2)C(=O)N1C(=O)OCc1ccccc1 ?
> 100 µM

Using the record for CNC(=O)CN(CC(N)=O)C(N)=O , report its TGI.
> 100 µM

Provide TGI values for the following items, in order.
1. Cc1cc2c(c(=O)n1C)SCC2
2. C[C@]12CC[C@H](OC3CCCCO3)CC1=CC[C@@H]1C2CC[C@]2(C)/C(=N/O)CCC12 (stereo partly specified)
3. CC1(C2CCC3(C)OC3C2)CO1 (stereo unspecified)

> 100 µM
> 100 µM
> 100 µM

====

Field: GI50. Provide a value for each of the compounds that follow.
Test system: NCI-H522 lung

Please give the measured GI50 for this compound: O=c1c2ccccc2oc2ccc(OCCCCCCN3CCCCCC3)cc12
2820 nM

For C=[CH][Sn]([CH]=C)([O]c1cccc2cccnc12)[O]c1cccc2cccnc12 , what is its reported GI50?
930 nM

Which GI50 value is on record for CC1(C)CC[C@]2(C(N)=O)CC[C@]3(C)C(=CC[C@@H]4[C@@]5(C)C/C(=C/c6ccncc6)C(=O)C(C)(C)[C@@H]5CC[C@]43C)[C@@H]2C1 ?
2280 nM

Looking for the measured GI50 of Cc1cc(C(O)CN(C)C)cc2c1ccc1cc(C(C)C)ccc12 (configuration not stated) , can you help?
1840 nM

Could you tell me which GI50 is on file for CC/C=C\C/C=C\C[C@H](O)C/C=C1/C(=O)C=C[C@@H]1C/C=C\CCCC(=O)OC ?
1030 nM

# query: GI50 of entry CCC(CC(C)C)Nc1ccc(NC(CC)CC(C)C)cc1 (configuration not stated)
3820 nM

Shifting focus to the compound that follows.
I have this compound here, CC1CC2(C)CC(=O)C1C1C(=O)N(CCN3CCCCC3)C(=O)C12 (configuration not stated) , and I need its recorded GI50.
> 100000 nM

====

Tested on: SF-295 CNS
Assay: NCI tumour cell line growth inhibition, 48 h
Hi there, I'd appreciate the recorded TGI for every entry that follows.

Sample answers from the record:
Fill blank: measured TGI of the compound COc1cccc(/C=C/C(=O)c2cc3c(N)c(C(=O)Nc4cccc5ccccc45)sc3nc2C)c1 is ____.
23.1 µM

Requested read-out: TGI. Entry: Cc1ccc(/C(O)=C/c2nc3ccc([N+](=O)[O-])cc3nc2/C=C(\O)c2ccc(C)cc2)cc1
> 100 µM

TGI lookup needed for CCOC(=O)[C@H]1Nc2ccccc2C2c3ccccc3CC21 (some centres undefined) , thanks.
> 100 µM

Give the measured TGI of CN(C)c1ccc(/C=C2\N=C(c3ccccc3)N(c3ccc4c(c3)Sc3cc(N5C(=O)/C(=C/c6ccc(N(C)C)cc6)N=C5c5ccccc5)ccc3N4)C2=O)cc1 .
36 µM

What does the record list as TGI for O=C(c1ccco1)N(C(=S)OC12CC3CC(CC(C3)C1)C2)c1ccccc1 ?
> 100 µM

Could I get TGI for every one of these entries?
1. C/C(CC(=O)N(C(C)C)C(C)C)=N\NC(=O)c1ccncc1
2. Cc1cc([N+](=O)[O-])c(C)c(Br)c1C
3. CCN(CC)c1ccc2cc(-c3nc4ccccc4c(=O)[nH]3)c(=N)oc2c1
4. O=C1c2ccccc2C(=O)c2nc3ccc(Cl)cc3cc21

1. > 100 µM
2. > 100 µM
3. > 100 µM
4. > 100 µM
